Where do the numbers come from? From ChEMBL document CHEMBL1133348.

I'd appreciate it if you could supply inhibition of growth at 2 µg/mL values for the items below.
Tested on: THP-1
testSummary: Percentage growth inhibition of Toxoplasma gondii at concentration of 2 ug/mL using an human myelomonocytic cell line THP-1
Assay type: functional
conditionSet: read-out: GI
One number for each entry, in %.

Past entries and their recorded results:
[[record]]
smi = "Cc1cc2c(o1)C(=O)C=C(Br)C2=O"
targetofassay = "THP-1"
val = 83

[[record]]
smi = "Cc1cnc2c(c1)C(=O)c1c(oc(C)c1C)C2=O"
targetofassay = "THP-1"
val = 96.5

[[record]]
smi = "Cc1cc2c(o1)C(=O)c1cnc(O)cc1C2=O"
targetofassay = "THP-1"
val = 62

[[record]]
smi = "O=C1c2cc(O)ncc2C(=O)c2c(O)cccc21"
targetofassay = "THP-1"
val = 54


Recorded inhibition of growth at 2 µg/mL (molecule Cc1c2c(cc(=O)n1C)C(=O)c1ccccc1C2=O ): 56

====

Tested on: THP-1
testSummary: Percentage growth inhibition of Toxoplasma gondii at concentration of 2 ug/mL using an human myelomonocytic cell line THP-1
Assay type: functional
conditionSet: read-out: GI
Exercise: for every item that follows, state its recorded inhibition of growth at 2 µg/mL.
One number for each entry, in %.

[[record]]
smi = "CCc1nc(N)nc(N)c1-c1ccc(Cl)cc1"
targetofassay = "THP-1"
property = "inhibition of growth at 2 µg/mL"
val = 94

[[record]]
smi = "Cn1cc2c(cc1=O)C(=O)c1ccccc1C2=O"
targetofassay = "THP-1"
property = "inhibition of growth at 2 µg/mL"
val = 52

[[record]]
smi = "Cc1cc2c(o1)C(=O)c1cc(O)ncc1C2=O"
targetofassay = "THP-1"
property = "inhibition of growth at 2 µg/mL"
val = 92

[[record]]
smi = "O=C1C(O)=C([C@H]2CC[C@H](c3ccc(Cl)cc3)CC2)C(=O)c2ccccc21"
targetofassay = "THP-1"
property = "inhibition of growth at 2 µg/mL"
val = 95

[[record]]
smi = "O=C1C=C(Br)C(=O)c2ccccc21"
targetofassay = "THP-1"
property = "inhibition of growth at 2 µg/mL"
val = 66

[[record]]
smi = "Nc1ccc(S(=O)(=O)Nc2ncccn2)cc1"
targetofassay = "THP-1"
property = "inhibition of growth at 2 µg/mL"
val = 90

[[record]]
smi = "Cc1nc(O)cc2c1C(=O)c1cccc(O)c1C2=O"
targetofassay = "THP-1"
property = "inhibition of growth at 2 µg/mL"
val = 50

[[record]]
smi = "CCC[C@@H]1C[C@@H](C(=O)N[C@@H]([C@H]2O[C@H](SC)[C@H](O)[C@@H](O)[C@H]2O)[C@H](C)Cl)N(C)C1"
targetofassay = "THP-1"
property = "inhibition of growth at 2 µg/mL"
val = 86

[[record]]
smi = "CCOc1cnc2c(c1C)C(=O)c1oc(C)c(C)c1C2=O"
targetofassay = "THP-1"
property = "inhibition of growth at 2 µg/mL"
val = 89.5


Now consider a different compound.
compound O=C1c2ccccc2C(=O)c2cc(O)ncc21 , inhibition of growth at 2 µg/mL observed: 80
